- system-tested: T1, Human Id2: Histidine (human, UniProt Q02363 1-134, limits assumed)
- T1 construct: Fusion protein made in E. coli from vector pGW07; also called h-Id2: His; not shown: His tag
- T1 sequence (looked up): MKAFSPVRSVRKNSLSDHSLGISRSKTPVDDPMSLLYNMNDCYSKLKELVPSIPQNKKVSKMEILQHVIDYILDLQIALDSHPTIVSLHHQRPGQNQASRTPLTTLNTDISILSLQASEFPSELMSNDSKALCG
- test-name: ELISA, Ab 0.050 µg/ml
value-type: A450 (A450)
Express your answer in A450, writing the number without its unit.

Field: example entries. Status: answers known.
rabbit monoclonal anti-mouse/human Id3, clone #BCH-4/#17-3 (antibody, V domains shown, Rabbit IgG from a rabbit hybridoma; also called m/h Id3 MoAb 17-3; BCH-3/#17-3) VH: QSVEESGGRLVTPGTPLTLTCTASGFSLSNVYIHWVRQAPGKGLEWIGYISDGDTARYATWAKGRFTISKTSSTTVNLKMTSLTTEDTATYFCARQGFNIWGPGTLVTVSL VL: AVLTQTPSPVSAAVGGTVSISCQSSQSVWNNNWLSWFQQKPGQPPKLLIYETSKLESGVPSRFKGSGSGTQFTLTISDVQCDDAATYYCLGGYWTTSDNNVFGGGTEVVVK : 0.049
rabbit monoclonal anti-mouse/human Id3, clone #BCH-4/#6-1 (antibody, V domains shown, Rabbit IgG from a rabbit hybridoma; also called m/h Id3 MoAb 6-1) VH: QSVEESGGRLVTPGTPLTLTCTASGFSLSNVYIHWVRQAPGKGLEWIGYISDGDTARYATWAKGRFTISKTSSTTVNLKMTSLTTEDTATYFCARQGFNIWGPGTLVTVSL VL: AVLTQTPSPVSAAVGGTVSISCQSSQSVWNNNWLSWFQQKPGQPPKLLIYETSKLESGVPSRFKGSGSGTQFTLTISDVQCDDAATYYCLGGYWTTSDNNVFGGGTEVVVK : 0.046
rabbit monoclonal anti-mouse/human Id3, clone #BCH-4/#42-1 (antibody, V domains shown, Rabbit IgG from a rabbit hybridoma; also called m/h Id3 MoAb 42-1) VH: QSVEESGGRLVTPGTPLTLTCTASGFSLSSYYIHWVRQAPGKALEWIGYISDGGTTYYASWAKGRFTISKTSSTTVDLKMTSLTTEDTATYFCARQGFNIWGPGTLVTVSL VL: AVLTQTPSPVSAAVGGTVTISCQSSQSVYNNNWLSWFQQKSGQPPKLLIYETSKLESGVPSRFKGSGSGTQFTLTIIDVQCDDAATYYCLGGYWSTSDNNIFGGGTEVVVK : 0.047
rabbit monoclonal anti-mouse/human Id3, clone #BCH-4/#16-1 (antibody, V domains shown, Rabbit IgG from a rabbit hybridoma; also called m/h Id3 MoAb 16-1) VH: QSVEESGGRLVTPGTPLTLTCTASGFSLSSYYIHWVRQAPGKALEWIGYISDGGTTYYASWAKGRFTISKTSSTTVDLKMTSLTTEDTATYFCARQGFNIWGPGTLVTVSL VL: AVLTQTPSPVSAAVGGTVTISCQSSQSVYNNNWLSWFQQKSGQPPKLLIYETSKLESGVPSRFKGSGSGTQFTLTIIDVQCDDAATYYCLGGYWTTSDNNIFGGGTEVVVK : 0.044

Could you now look at the following binder, please?
Record request: A450 value, item rabbit monoclonal anti-human Id3, clone #BCH-4/#3-3 (antibody, V domains shown, Rabbit IgG from a rabbit hybridoma; also called h Id3 MoAb 3-3) VH: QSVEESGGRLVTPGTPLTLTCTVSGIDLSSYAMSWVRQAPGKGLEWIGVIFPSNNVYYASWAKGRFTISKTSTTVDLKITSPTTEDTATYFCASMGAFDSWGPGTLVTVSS VL: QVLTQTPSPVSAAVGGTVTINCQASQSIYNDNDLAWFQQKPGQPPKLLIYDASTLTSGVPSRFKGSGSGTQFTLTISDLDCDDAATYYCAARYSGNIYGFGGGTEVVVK
0.048

Hey, just so you know, these numbers are from patent US20070178531A1.
